target: UniProt:Q194T2; type: functional, Influenza A virus (A/California/07/2009(H1N1))
Sequence (Q194T2 whole entry): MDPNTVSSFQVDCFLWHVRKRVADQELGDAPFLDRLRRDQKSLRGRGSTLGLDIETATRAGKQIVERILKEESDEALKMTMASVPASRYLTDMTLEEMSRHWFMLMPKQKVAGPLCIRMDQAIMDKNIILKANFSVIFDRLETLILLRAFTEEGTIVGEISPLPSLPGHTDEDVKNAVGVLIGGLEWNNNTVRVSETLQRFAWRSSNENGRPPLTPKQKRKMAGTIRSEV
The source made the active and inactive calls.
Hi there, I'd appreciate the recorded IC50 for every entry that follows.

Previously resolved entries follow.
COc1cccc2c1C(=N)c1c(O)c3c(c(O)c1C2=O)C[C@@](O)(C(C)=O)C[C@@H]3O[C@H]1C[C@H](N)[C@H](O)[C@H](C)O1 | 11.2 µM (active)
CCN(CC)S(=O)(=O)c1ccc(N/N=C/c2ccc(O)cc2O)nc1 | 12.1 µM (active)
CN(C)c1ccc(NC2=C(Cl)C(=O)c3ccccc3C2=O)cc1 | 7.36 µM (active)

For the next question, use this molecule.
Q) Record lookup: for UniProt:Q194T2, what IC50 belongs to Cc1ccnc2c1ccc1c(C)ccnc12 ?
A) 0.472 µM (active)

----------
Hi there, I'd appreciate the recorded EC50 for every entry that follows.
Target: RNA-binding protein pos-1 (Caenorhabditis elegans, UniProt G5EF15)
Sequence (G5EF15 whole entry): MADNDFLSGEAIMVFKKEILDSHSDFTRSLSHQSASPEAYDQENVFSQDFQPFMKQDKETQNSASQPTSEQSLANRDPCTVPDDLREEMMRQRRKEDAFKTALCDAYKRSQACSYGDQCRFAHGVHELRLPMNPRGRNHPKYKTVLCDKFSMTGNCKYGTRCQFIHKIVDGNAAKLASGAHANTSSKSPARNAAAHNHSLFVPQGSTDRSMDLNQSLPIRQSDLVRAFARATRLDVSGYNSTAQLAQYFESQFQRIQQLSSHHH
Assay: inhibitors of POS-1/mex-3 RNA binding, dose response, biochemical, fluorescence polarization (AID 1964);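 further: purified POS-1 fused to maltose binding protein made in E. coli; potency of compounds blocking POS-1 binding to fluorescent RNA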
The source made the active and inactive calls.

O=C(O)COc1ccc(/C=C/c2n[nH]c(-c3ccccc3O)n2)cc1 | > 300 µM (not active)
N=c1c(S(=O)(=O)c2ccccc2)cc2c(=O)n3ccccc3nc2n1Cc1cccnc1 | 68.1 µM (inconclusive)

Q) Consider the compound Cc1cc(C)c(N2C(=O)NC(=O)/C(=C\NNC(=O)c3ccncc3)C2=O)c(C)c1 and give its measured EC50.
A) 64.7 µM (active)

----------
Target: Calpain-2 catalytic subunit (Sus scrofa, UniProt P43367)
Sequence (P43367 whole entry): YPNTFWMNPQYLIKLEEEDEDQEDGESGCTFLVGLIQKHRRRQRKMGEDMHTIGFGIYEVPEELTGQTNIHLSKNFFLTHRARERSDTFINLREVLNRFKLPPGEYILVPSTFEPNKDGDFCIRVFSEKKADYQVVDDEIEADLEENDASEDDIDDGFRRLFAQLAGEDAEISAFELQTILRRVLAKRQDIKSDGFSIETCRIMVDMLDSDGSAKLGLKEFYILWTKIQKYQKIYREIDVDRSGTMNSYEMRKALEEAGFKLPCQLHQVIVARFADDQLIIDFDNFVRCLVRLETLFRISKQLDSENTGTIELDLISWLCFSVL
Assay: pig calpain II inhibitor potency, dose response, biochemical, fluorogenic peptide substrate (AID 1420)
Format: functional
Hi there, I'd appreciate the recorded IC50 for every entry that follows.

Previously resolved entries follow.
O=C(COc1cccc2cccnc12)NNC(=O)Nc1ccccc1 | < 0.4 µM (not active)
COc1ccccc1CN(C)CC(=O)Nc1ccc(Cl)cc1F | > 50 µM (not active)
NS(=O)(=O)c1ccc(NC(=S)NCc2ccc(Cl)cc2)cc1 | 9.36 µM (not active)

For the next question, use this molecule.
Q) Consider the molecule COc1cccc(CN(C)CC(=O)Nc2cccc(C(F)(F)F)c2)c1OC and give its measured IC50.
A) 3.87 µM (not active)
